# Measured Target: immobilized lactase (lactase derived from Aspergillus oryzae) (Aspergillus oryzae)
# Construct: host or cells: Aspergillus oryzae
# Sequence (Q2UCU3 19-1005): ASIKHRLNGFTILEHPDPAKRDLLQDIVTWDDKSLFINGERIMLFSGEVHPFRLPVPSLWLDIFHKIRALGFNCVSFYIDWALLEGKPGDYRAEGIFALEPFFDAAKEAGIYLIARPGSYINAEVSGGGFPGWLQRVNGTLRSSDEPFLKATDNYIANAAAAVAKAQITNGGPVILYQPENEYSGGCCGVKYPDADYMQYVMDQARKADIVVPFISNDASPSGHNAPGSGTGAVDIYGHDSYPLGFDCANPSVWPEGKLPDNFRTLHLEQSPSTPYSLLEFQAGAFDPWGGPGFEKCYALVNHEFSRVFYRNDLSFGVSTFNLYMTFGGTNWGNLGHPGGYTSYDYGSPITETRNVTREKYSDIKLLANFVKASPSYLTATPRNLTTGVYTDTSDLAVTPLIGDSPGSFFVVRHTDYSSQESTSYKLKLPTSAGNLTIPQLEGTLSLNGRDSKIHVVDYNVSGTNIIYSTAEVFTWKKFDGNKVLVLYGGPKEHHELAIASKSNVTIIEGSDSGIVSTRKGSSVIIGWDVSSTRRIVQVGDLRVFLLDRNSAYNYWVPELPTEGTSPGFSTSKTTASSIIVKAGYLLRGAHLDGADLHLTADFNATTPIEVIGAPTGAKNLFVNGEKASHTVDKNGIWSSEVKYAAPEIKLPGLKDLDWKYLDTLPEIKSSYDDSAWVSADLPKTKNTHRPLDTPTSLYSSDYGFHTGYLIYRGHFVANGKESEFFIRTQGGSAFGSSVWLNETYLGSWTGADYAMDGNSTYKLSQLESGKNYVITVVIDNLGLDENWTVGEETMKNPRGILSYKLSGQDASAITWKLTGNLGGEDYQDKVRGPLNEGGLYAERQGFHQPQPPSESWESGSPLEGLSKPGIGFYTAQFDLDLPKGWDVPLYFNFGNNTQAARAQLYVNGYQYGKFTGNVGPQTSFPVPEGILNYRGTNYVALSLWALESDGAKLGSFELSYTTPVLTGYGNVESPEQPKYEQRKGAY
# Test Description: Residual enzyme activity of immobilized lactase after immersion in disinfectant solutions
# Assay type: biochemical
# Applied Conditions: 168 h; chemical 1%; 18°-20° C.; relative to 860 ILU/g-IML before immersion; read-out: Residual enzyme activity (relative ratio, %) after immersion for 7 days
Reported remaining activity at 1 % values follow for various compounds
Could you give me the number in %? Just the number is fine.

| Compound | Measured Target | Number |
| --- | --- | --- |
| O=CCCCC=O | immobilized lactase (lactase derived from Aspergillus oryzae) (Aspergillus oryzae) | 102 |
| CC(=O)O | immobilized lactase (lactase derived from Aspergillus oryzae) (Aspergillus oryzae) | 102 |
| O=C(O)CC(O)C(=O)O (centres unmarked) | immobilized lactase (lactase derived from Aspergillus oryzae) (Aspergillus oryzae) | 101 |
| CC(O)C(=O)O (centres unmarked) | immobilized lactase (lactase derived from Aspergillus oryzae) (Aspergillus oryzae) | 103 |

# evaluate next
Test item C/C=C/C=C/C(=O)[O-].[K+] [Potassium sorbate] ; immobilized lactase (lactase derived from Aspergillus oryzae) (Aspergillus oryzae); reported remaining activity at 1 % was 103

Data origin: patent US4465772A
